Kindly supply the reported MIC values for the records listed here.
System: Mycobacterium tuberculosis
Experiment: Antibacterial activity against non-replicating Mycobacterium tuberculosis H37Rv ATCC 27294 by low oxygen recovery assay
Type: functional
Numbers only, in mg/L.

The examples below pair each entry with its known result.
INSERT INTO measurements (molecule, system_under_test, property, unit_text, readout_value) VALUES
  ('CCCCCC[C@H](CN1CCC(COc2cccc(/C(=N\OC)c3ccc(Cl)cc3)c2)CC1)OC(N)=O', 'Mycobacterium tuberculosis', 'MIC', 'mg/L', 0.85),
  ('COc1ccc(CCNC(CO)c2cccc(COc3cccc(C(=O)c4ccc(Cl)cc4)c3)c2)cc1 (racemic)', 'Mycobacterium tuberculosis', 'MIC', 'mg/L', 3),
  ('CCCCCC[C@@H](CN1CCC(COc2ccc(/C(=N\OC)c3ccc(Cl)cc3)c(Cl)c2)CC1)OC(N)=O', 'Mycobacterium tuberculosis', 'MIC', 'mg/L', 1.4),
  ('CCCCCC[C@H](O)CN1CCC(COc2ccc(C(=O)c3ccc(Cl)cc3)c(Cl)c2)CC1', 'Mycobacterium tuberculosis', 'MIC', 'mg/L', 1.43),
  ('CCCCC(O)CN1CCC(COc2ccc(C(=O)c3ccc(Cl)cc3)c(Cl)c2)CC1 (racemic)', 'Mycobacterium tuberculosis', 'MIC', 'mg/L', 2.82),
  ('COc1ccc(CCN[C@@H](CO)c2cccc(COc3cccc(C(=O)c4ccc(Cl)cc4)c3)c2)cc1', 'Mycobacterium tuberculosis', 'MIC', 'mg/L', 3),
  ('CCCCCCC[C@H](O)c1cccc(CN2CCC(COc3ccc(C(=O)c4ccc(Cl)cc4)c(Cl)c3)CC2)c1', 'Mycobacterium tuberculosis', 'MIC', 'mg/L', 1.88),
  ('CCCCCC[C@@H](CN1CCC(COc2cccc(C(=O)c3ccc(Cl)cc3)c2)CC1)OC(N)=O', 'Mycobacterium tuberculosis', 'MIC', 'mg/L', 2.94);

Required: MIC, one value per molecule below.
1. CCCCCC[C@@H](CN1CCC(COc2ccc(C(=O)c3ccc(Cl)cc3)c(Cl)c2)CC1)OC(N)=O
2. CCCC[C@@H](O)CN1CCC(COc2cccc(C(=O)c3ccc(Cl)cc3)c2)CC1
3. CCCC[C@H](O)CN1CCC(COc2cccc(C(=O)c3ccc(Cl)cc3)c2)CC1
4. CCCCCCC[C@H](OC(N)=O)c1cccc(CN2CCC(COc3cccc(C(=O)c4ccc(Cl)cc4)c3)CC2)c1
5. CCCCCCC[C@@H](O)c1cccc(CN2CCC(COc3cccc(/C(=N\OC)c4ccc(Cl)cc4)c3)CC2)c1

Response:
1: 1.45; 2: 4.91; 3: 5.59; 4: 4.93; 5: 1.43
